- Measured On: A*11:01 (human), P04439
- Details: modification not given
Measurement Name: pIC50
Units for pIC50: none; it is -log10 of a concentration expressed in mol/L.

Task: pIC50 for ALKLSWFKK [SEQ ID NO: 311 serotype 1] ?
Output: 7.23

FYI, the data here is from patent US20180280496A1.
